assay: in vivo; conditions: male, NodCB17 SCID, mouse, muscle, iv, 0.061 nmol, total radioactivity
outcomeMeasure: tissue uptake at 1 h (%ID/g)

molecule="CC(C)C[C@H](NC(=O)C[C@H](O)[C@H](CC(C)C)NC(=O)[C@H](Cc1c[nH]cn1)NC(=O)CNC(=O)[C@@H](NC(=O)[C@H](C)NC(=O)[C@H](Cc1c[nH]c2ccccc12)NC(=O)[C@H](CCC(N)=O)NC(=O)[C@@H](Cc1ccccc1)NC(=O)CCOCCOCCOCCOCCNC(=O)OC1CCCC2=CNN=C(c3ccc(CNC(=O)CN4CCN(CC(=O)O)CCN(CC(=O)O)CCN(CC(=O)O)CC4)cc3)C2CC1)C(C)C)C(N)=O (stereo partly shown) [[90Y]Y-DOTA-Tz-TCO-PEG4-AR, metal not drawn]" datavalue=0.41
